Form field: pEC50 (one value per entry).
System: HCV replicon cells
method description: Cell-based HCV replicon assay (replicon RNA by Taqman real time PCR)
setup conditions: read-out: 1b EC50
Recall that pEC50 is obtained by taking minus log10 of the concentration measured in molar.

INSERT INTO results (molecule, quantity_kind, recorded_number) VALUES
  ('COc1nc(N)nc2c1ncn2[C@@H]1O[C@H](COP(=O)(N[C@@H](C)C(=O)OC2CCCCC2)Oc2ccc(F)cc2)[C@@H](O)[C@@]1(C)N=[N+]=[N-] (single isomer, unassigned) [Compound 265]', 'pEC50', 5.60);

Would you kindly share the measured pEC50 for COc1nc(N)nc2c1ncn2[C@@H]1O[C@H](COP(=O)(N[C@@H](C)C(=O)OCc2ccccc2)Oc2ccccc2)[C@@H](O)[C@@]1(C)N=[N+]=[N-] (single isomer, unassigned) [Compound 279] ?
6.00

Try the molecule CCOC(=O)[C@H](C)NP(=O)(OC[C@H]1O[C@@H](n2cnc3c(OC)nc(N)nc32)[C@](C)(N=[N+]=[N-])[C@@H]1O)Oc1ccc(F)cc1 (single isomer, unassigned) [Compound 270]
5.74

Query CCOC(=O)[C@H](C)NP(=O)(OC[C@H]1O[C@@H](n2cnc3c(OC)nc(N)nc32)[C@](C)(N=[N+]=[N-])[C@@H]1O)Oc1ccccc1 (some centres unmarked) [Compound 250] next
6.15

Proceed to CC(C)OC(=O)[C@H](C)NP(=O)(OC[C@H]1O[C@@H](n2ccc(N)nc2=O)[C@](C)(N=[N+]=[N-])[C@@H]1O)Oc1ccccc1Cl (some centres unmarked) [Compound 96]
6.22

----------
System: HCV replicon cells
method description: Cell-based HCV replicon assay (replicon RNA by Taqman real time PCR)
setup conditions: read-out: 1b EC50
EC50 values for the compounds below.
Write the answer as a number in µM, unit excluded.

INSERT INTO measurements (compound, experimental_target, recorded_number) VALUES
  ('COC(=O)[C@H](C)NP(=O)(OC[C@H]1O[C@@H](n2ccc(N)nc2=O)[C@](C)(N=[N+]=[N-])[C@@H]1O)Oc1ccccc1Cl (single isomer, unassigned) [Compound 202]', 'HCV replicon cells', 10),
  ('COc1nc(N)nc2c1ncn2[C@@H]1O[C@H](COP(=O)(N[C@@H](C)C(=O)OC(C)C)Oc2ccc(Cl)cc2)[C@@H](O)[C@@]1(C)N=[N+]=[N-] (single isomer, unassigned)', 'HCV replicon cells', 3.4),
  ('CCOc1nc(N)nc2c1ncn2[C@@H]1O[C@H](COP(=O)(N[C@@H](C)C(=O)OC2CCC2)Oc2ccccc2)[C@@H](O)[C@@]1(C)N=[N+]=[N-] (single isomer, unassigned) [Compound 362]', 'HCV replicon cells', 2.6),
  ('CCOc1nc(N)nc2c1ncn2[C@@H]1O[C@H](COP(=O)(N[C@@H](C)C(=O)OC(C)C)Oc2ccccc2)[C@@H](O)[C@@]1(C)N=[N+]=[N-] (single isomer, unassigned) [Compound 166]', 'HCV replicon cells', 0.8);

The record that follows has no EC50 shown yet.
Please give the measured EC50 for this compound: COC(=O)[C@H](C)NP(=O)(OC[C@H]1O[C@@H](n2cnc3c(OC)nc(N)nc32)[C@](C)(N=[N+]=[N-])C1O)Oc1ccccc1 (single isomer, unassigned) [Compound 260]
3.6

----------
Test system: HCV replicon cells
method description: Cell-based HCV replicon assay (replicon RNA by Taqman real time PCR)
setup conditions: Hepatitis C virus, 72 h, HCV replicon 1b, cells harvested on day 3; read-out: 1b EC50
quantity kind: EC50

Before answering, review these 2 worked examples.
INSERT INTO measurements (compound, result) VALUES
  ('C[C@H](NP(=O)(O)OC[C@H]1O[C@@H](n2ccc(=O)[nH]c2=O)[C@](C)(N=[N+]=[N-])[C@@H]1O)C(=O)OC1CCCCC1 (single isomer, unassigned) [Compound 329]', '> 100 µM'),
  ('CCCOP1(=O)OC[C@H]2O[C@@H](n3ccc(=O)[nH]c3=O)[C@](C)(N=[N+]=[N-])[C@@H]2O1 (stereo partly drawn) [Compound 85]', '> 100 µM');

Let us move to another entry and its EC50.
May I ask what EC50 has been recorded for C[C@@]1(N=[N+]=[N-])[C@H](O)[C@@H](CO)O[C@H]1n1ccc(=O)[nH]c1=O [Compound 4] ?
> 100 µM

----------
Tested on: HCV replicon cells
method description: Cell-based HCV replicon assay (replicon RNA by Taqman real time PCR)
setup conditions: Hepatitis C virus, 72 h, HCV replicon 1b, cells harvested on day 3; read-out: 1b EC50
quantity kind: pEC50
Scale for pEC50: -log10 of concentration given in mol/L; no unit attached.

INSERT INTO results (compound, recorded_number) VALUES
  ('C[C@@]1(N=[N+]=[N-])[C@@H]2OP(=O)(OC3CCC3)OC[C@H]2O[C@H]1n1ccc(=O)[nH]c1=O (stereo partly shown) [Compound 83]', 4.20);

// next item, pEC50 requested
Can you look up pEC50 on HCV replicon cells for CC(=O)Nc1ccn([C@@H]2O[C@H](CO)[C@@H](O)[C@@]2(C)N=[N+]=[N-])c(=O)n1 [Compound 2] ?
4.12

----------
System: HCV replicon cells
method description: Cell-based HCV replicon assay (replicon RNA by Taqman real time PCR)
setup conditions: HCV replicon 1b, cells harvested on day 3; read-out: 1b EC50
quantity kind: EC50

# count of solved cases: 3
INSERT INTO measurements (compound, experimental_target, result) VALUES
  ('C[C@@]1(N=[N+]=[N-])[C@@H]2OP(=O)(OC3CCCC3)OC[C@H]2O[C@H]1n1ccc(=O)[nH]c1=O (single isomer, unassigned) [Compound 562]', 'HCV replicon cells', '0.4 µM'),
  ('C[C@@]1(N=[N+]=[N-])[C@@H]2OP(=O)(OC3CCCC3)OC[C@H]2O[C@H]1n1ccc(=O)[nH]c1=O (single isomer, unassigned) [Compound 561]', 'HCV replicon cells', '3.1 µM'),
  ('COC(=O)[C@H](C)NP1(=O)OC[C@H]2O[C@@H](n3ccc(N)nc3=O)[C@](C)(N=[N+]=[N-])[C@@H]2O1 (single isomer, unassigned) [Compound 530]', 'HCV replicon cells', '67 µM');

Please report the recorded EC50 for CCOc1nc(N)nc2c1ncn2[C@@H]1O[C@@H]2COP(=O)(OC3CCC3)O[C@H]2[C@@]1(C)N=[N+]=[N-] (single isomer, unassigned) [Compound 101] .
0.1 µM

Now the compound CCCOP1(=O)OC[C@H]2O[C@@H](n3ccc(=O)[nH]c3=O)[C@](C)(N=[N+]=[N-])[C@@H]2O1 (single isomer, unassigned) [Compound 565]
> 100 µM

----------
System: HCV replicon cells
method description: Cell-based HCV replicon assay (replicon RNA by Taqman real time PCR)
setup conditions: read-out: 1b EC50
quantity kind: EC50 (µM)
Could you give me the number in µM? Just the number is fine.

Worked set:
INSERT INTO results (compound, readout_units, recorded_number) VALUES
  ('COC(=O)c1ccccc1OP(=O)(N[C@@H](C)C(=O)OC)OC[C@H]1O[C@@H](n2ccc(=O)[nH]c2=O)[C@](C)(N=[N+]=[N-])[C@@H]1O (single isomer, unassigned) [Compound 215]', 'µM', 3.1),
  ('COc1nc(N)nc2c1ncn2[C@@H]1O[C@H](COP(=O)(N[C@@H](C)C(=O)OCC(C)C)Oc2ccccc2)C(O)[C@@]1(C)N=[N+]=[N-] (single isomer, unassigned)', 'µM', 2.7),
  ('CCCCOC(=O)[C@H](C)NP(=O)(OC[C@H]1O[C@@H](n2ccc(=O)[nH]c2=O)[C@](C)(N=[N+]=[N-])[C@@H]1O)Oc1cccc2ccccc12 (single isomer, unassigned)', 'µM', 1.5),
  ('CCOC(=O)c1cccc(OP(=O)(N[C@@H](C)C(=O)OC)OC[C@H]2O[C@@H](n3ccc(=O)[nH]c3=O)[C@](C)(N=[N+]=[N-])[C@@H]2O)c1 (single isomer, unassigned)', 'µM', 12);

Given the entry CCOC(=O)[C@H](C)NP(=O)(OC[C@H]1O[C@@H](n2cnc3c(OC)nc(N)nc32)[C@](C)(N=[N+]=[N-])[C@@H]1O)Oc1ccc(Cl)cc1 (single isomer, unassigned) [Compound 289] , report its measured EC50.
0.7

Now the same for COC(=O)[C@H](C)NP(=O)(OC[C@H]1O[C@@H](n2ccc(N)nc2=O)[C@](C)(N=[N+]=[N-])[C@@H]1O)Oc1ccc(Cl)c(Cl)c1 (single isomer, unassigned) [Compound 344]
35

What would you report for CCCCOC(=O)[C@H](C)NP(=O)(OC[C@H]1O[C@@H](n2cnc3c(OCC)nc(N)nc32)[C@](C)(N=[N+]=[N-])[C@@H]1O)Oc1cccc2ccccc12 (single isomer, unassigned) ?
0.4

Now give it for COc1nc(N)nc2c1ncn2[C@@H]1O[C@H](COP(=O)(N[C@@H](C)C(=O)OC(C)C)Oc2ccccc2)C(O)[C@@]1(C)N=[N+]=[N-] (single isomer, unassigned) too.
0.6

Can you handle C[C@H](NP(=O)(OC[C@H]1O[C@@H](n2ccc(=O)[nH]c2=O)[C@](C)(N=[N+]=[N-])[C@@H]1O)Oc1ccccc1)C(=O)O[C@H](C)c1ccccc1 (single isomer, unassigned) next?
46.9

How about this compound: COc1nc(N)nc2c1ncn2[C@@H]1O[C@H](COP(=O)(N[C@@H](C)C(=O)OC(C)C)Oc2ccc(Cl)c(Cl)c2)[C@@H](O)[C@@]1(C)N=[N+]=[N-] (single isomer, unassigned)
8.4
